B1: glmS ribozyme (parent)
chain: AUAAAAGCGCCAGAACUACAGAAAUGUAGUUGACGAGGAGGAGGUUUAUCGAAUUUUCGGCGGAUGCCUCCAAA

# Variants of: B1
# Protocol: self-cleavage kobs at 160 uM GlcN6P; higher = faster cleavage; RNA array
# Condition Context: with glucosamine-6-phosphate
This sample holds only a part of the variants without activity.
Reported Endpoint: self-cleavage kobs at 160 uM GlcN6P

Look over these answered cases.
A33U U47A G62U A64G C71U = < 1e-05 s⁻¹
A39C U57G C71A = < 1e-05 s⁻¹
U55A C70U = 0.00271 s⁻¹
C8U U45G = < 1e-05 s⁻¹
U30A A33U = < 1e-05 s⁻¹
A52G U69G = 7.33e-05 s⁻¹

Field self-cleavage kobs at 160 uM GlcN6P (entry G43A G59A A64U ) reads < 1e-05 s⁻¹

Field self-cleavage kobs at 160 uM GlcN6P (entry A39G U45A ) reads 0.00768 s⁻¹
